- TARGET SYSTEM: T1, human IL-1RAcP on 293T/17-FR cells (human, UniProt Q9NPH3 21-570)
- T1 sequence (looked up): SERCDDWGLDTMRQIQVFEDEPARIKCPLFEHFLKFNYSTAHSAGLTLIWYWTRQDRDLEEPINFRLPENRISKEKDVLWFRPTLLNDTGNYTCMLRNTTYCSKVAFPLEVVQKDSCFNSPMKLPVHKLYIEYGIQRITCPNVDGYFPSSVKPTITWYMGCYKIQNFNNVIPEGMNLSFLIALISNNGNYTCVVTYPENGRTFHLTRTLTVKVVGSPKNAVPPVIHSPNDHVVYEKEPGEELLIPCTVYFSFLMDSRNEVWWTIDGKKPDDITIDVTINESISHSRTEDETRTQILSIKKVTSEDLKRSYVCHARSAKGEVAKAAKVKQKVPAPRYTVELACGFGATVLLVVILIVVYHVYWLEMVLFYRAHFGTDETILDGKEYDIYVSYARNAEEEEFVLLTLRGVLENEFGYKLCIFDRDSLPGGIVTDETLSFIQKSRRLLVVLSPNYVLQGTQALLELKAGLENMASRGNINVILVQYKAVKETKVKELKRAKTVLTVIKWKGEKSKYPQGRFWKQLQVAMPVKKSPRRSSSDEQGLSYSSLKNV
- PROTOCOL: cell-based or functional assay
functional reporter gene assay (% inhibition), 0.2 µg/mL mAb values by entry
Respond with the bare value in %.

As a guide, the following entries are already answered.
* P013.S.02.B.C04 (antibody, V domains shown, rabbit monoclonal antibody; also called P013.A.00085.H07) VH: QQLEQSGGGLVKPGGSLELCCKASGFSLSSSYWICWVRQAPGKGLEWIGCIYAGSSGSTYYANWVNGRFTLSRDIDQSTGCLQLSSLTAADTAMYYCARSIVDFSSGWGDLWGQGTLVTVSS VL: ALVMTQTPSPVSAAVGGTVTINCQASEDIYSNLAWYQQKPGQPPKLLMYGVSTLASGVPSRFSDSGSGTEFTLTISGLQSDDAATYYCLGVYTYISDVYYTFGGGTEVVVK | 26
* P013.S.02.B.C03 (antibody, V domains shown, rabbit monoclonal antibody; also called P013.A.00085.G07) VH: QSLEESGGRLVTPGTPLTLTCTVSGIDLSSYAMGWVRQAPGKGLEYIGIISNSGTTYYASWAKGRFTISKTSSTTVDLKMTSPTTEDTATYFCARDRYANTHGIFSLWGQGTLVTVSS VL: DIVMTQTPASVSAPVGGTVTINCQASESIYSDLAWYQQKPGQPPKLLISFVATLESGVPSRFKGSGSGTEFTLTISDLESADAATYYCQCTYGGSGSGNGAAFGGGTEVVVK | 27

Query P013.S.02.B.H04 (antibody, V domains shown, rabbit monoclonal antibody; also called P013.A.00029.F11) VH: QSVEESGGRLVKPDETLTLTCTVSGIDLSSYAMGWVRQAPGKGLEYIGIISSSGRTYYANWAKGRFTISKASSTTVDLKITSPTTEDTATYFCARLITVDYYIYDYFNLWGQGTLVTVSS VL: AYDMTQTPASVEAAVGGTVTIKCQASQSISSYLSWYQQKPGQPPKLLIYGASTLASGVPSRFKGSGSGTEYTLTISGVESDDAATYYCQQGYSYNNVDNTFGGGTEVVVK yields functional reporter gene assay (% inhibition), 0.2 µg/mL mAb of -6

Just for reference, patent US20190106487A1 is where these values come from.
